Consider the following pIC50 data for Amine oxidase [flavin-containing] A (Homo sapiens), collected from several reports.
pIC50: −log10 of the molar value.
Metric Name: pIC50

The examples below pair each entry with its known result.
INSERT INTO assay_data (compound, test_value) VALUES
  ('Cl.NC1CC1c1ccc(NC(=O)c2cccc(-c3ccco3)c2)cc1 (stereo not drawn)', 7.03),
  ('Cl.NC1CC1c1ccc(NC(=O)c2cccc(-c3ccccc3)c2)cc1 (stereo not drawn)', 7.55),
  ('O=C(/C=C/c1ccccc1)c1cc(Cl)cc(Cl)c1O', 5.53);

(1) COc1cc(OC)c2c(=O)c(O)c(/C=C/c3cc(OC)c(OC)c(OC)c3)oc2c1
(2) Cl.NC1CC1c1ccc(NC(=O)c2cccc(-c3ccncc3)c2)cc1 (stereo not drawn)
(3) CN1CCN(c2ccc(C=NNc3nc(-c4ccc([N+](=O)[O-])cc4)cs3)cc2)CC1
(4) COc1ccccc1O
(5) COc1cc(CCC(C)=O)ccc1O
Put the items in order so that reported pIC50 rises from first to last. The response must list the labels following the requested ordering.
4, 5, 1, 2, 3
(4: 3.88, 5: 4.79, 1: 5.99, 2: 6.80, 3: 7.24)

====

Consider the following pIC50 data for UniProtKB P21397, collected from several reports.
pIC50: −log10 of the molar value.

INSERT INTO results (compound, target_desc, test_value) VALUES
  ('O=C(CCl)Nc1ccc(C(=O)/C=C/c2ccc(F)cc2)cc1', 'UniProtKB P21397', '< 4.70'),
  ('CC(C)(C)c1ccc(OCCCCN2CCCCCC2)cc1.O=C(O)C(=O)O', 'UniProtKB P21397', '< 5.00');

Query `O=C(CSC(=S)N1CCN(Cc2ccccc2)CC1)N1CCN(c2ncccn2)CC1` yields pIC50 of < 3.00

Query Cl.NC1CC1c1ccc(NC(=O)c2cccc(-c3ccsc3)c2)cc1 (stereo not shown) yields pIC50 of 7.55

Query Cl.NC1CC1c1ccc(NC(=O)c2cccc(-c3cccs3)c2)cc1 (stereo not shown) yields pIC50 of 7.62

Query `O=C(CCl)Nc1ccc(C(=O)/C=C/c2ccccc2)cc1` yields pIC50 of < 4.70

Query `CC1(C)CCCN(CCCCCOc2ccc(C(C)(C)C)cc2)C1.O=C(O)C(=O)O` yields pIC50 of < 5.00

Query `O=c1cc(-c2ccccc2)oc2cc(Cl)c(Cl)cc12` yields pIC50 of 7.72

Query `O=C(CSC(=S)N1CCN(C(c2ccccc2)c2ccccc2)CC1)N1CCN(c2ncccn2)CC1` yields pIC50 of 4.62

Query `C=CCNc1nnc(-c2cc(-c3nnc(NCC=C)s3)cc(-c3nnc(NCC=C)s3)c2)s1` yields pIC50 of 4.06

Query `CN1CCN(C(=S)SCC(=O)Nc2ccc(C(=O)/C=C/c3cccc(F)c3)cc2)CC1` yields pIC50 of < 4.70

Query `CC(C)(C)c1ccc(OCCCCN2CCCCC2)cc1.O=C(O)C(=O)O` yields pIC50 of < 5.00

====

Consider the following IC50 data for UniProt:P21397, collected from several reports.

INSERT INTO measurements (molecule, test_value) VALUES
  ('O=C(CCl)Nc1ccc(C(=O)/C=C/c2ccccc2F)cc1', '> 20 µM');

Simply: CC1CCCCN1CCCCOc1ccc(C(C)(C)C)cc1.O=C(O)C(=O)O (stereo not shown) , UniProt:P21397, IC50 = > 10 µM

Simply: Cl.NC1CC1c1ccc(NC(=O)c2cccc(-c3ccoc3)c2)cc1 (stereo not shown) , UniProt:P21397, IC50 = 1.12 µM

Simply: `O=C(CSC(=S)N1CCN(Cc2ccccc2)CC1)Nc1ccc(C(=O)/C=C/c2ccccc2F)cc1` , UniProt:P21397, IC50 = > 20 µM

Simply: CC1CCCN(CCCOc2ccc(C(C)(C)C)cc2)C1.O=C(O)C(=O)O (stereo not shown) , UniProt:P21397, IC50 = > 10 µM

Simply: `CCN1CCN(C(=S)SCC(=O)Nc2ccc(C(=O)/C=C/c3cccc(F)c3)cc2)CC1` , UniProt:P21397, IC50 = > 20 µM

Simply: CC1CCCCN1CCCOc1ccc(C(C)(C)C)cc1.O=C(O)C(=O)O (stereo not shown) , UniProt:P21397, IC50 = > 10 µM
